- systemName: ATM (Homo sapiens (Human))
- Sequence (Q13315 whole entry): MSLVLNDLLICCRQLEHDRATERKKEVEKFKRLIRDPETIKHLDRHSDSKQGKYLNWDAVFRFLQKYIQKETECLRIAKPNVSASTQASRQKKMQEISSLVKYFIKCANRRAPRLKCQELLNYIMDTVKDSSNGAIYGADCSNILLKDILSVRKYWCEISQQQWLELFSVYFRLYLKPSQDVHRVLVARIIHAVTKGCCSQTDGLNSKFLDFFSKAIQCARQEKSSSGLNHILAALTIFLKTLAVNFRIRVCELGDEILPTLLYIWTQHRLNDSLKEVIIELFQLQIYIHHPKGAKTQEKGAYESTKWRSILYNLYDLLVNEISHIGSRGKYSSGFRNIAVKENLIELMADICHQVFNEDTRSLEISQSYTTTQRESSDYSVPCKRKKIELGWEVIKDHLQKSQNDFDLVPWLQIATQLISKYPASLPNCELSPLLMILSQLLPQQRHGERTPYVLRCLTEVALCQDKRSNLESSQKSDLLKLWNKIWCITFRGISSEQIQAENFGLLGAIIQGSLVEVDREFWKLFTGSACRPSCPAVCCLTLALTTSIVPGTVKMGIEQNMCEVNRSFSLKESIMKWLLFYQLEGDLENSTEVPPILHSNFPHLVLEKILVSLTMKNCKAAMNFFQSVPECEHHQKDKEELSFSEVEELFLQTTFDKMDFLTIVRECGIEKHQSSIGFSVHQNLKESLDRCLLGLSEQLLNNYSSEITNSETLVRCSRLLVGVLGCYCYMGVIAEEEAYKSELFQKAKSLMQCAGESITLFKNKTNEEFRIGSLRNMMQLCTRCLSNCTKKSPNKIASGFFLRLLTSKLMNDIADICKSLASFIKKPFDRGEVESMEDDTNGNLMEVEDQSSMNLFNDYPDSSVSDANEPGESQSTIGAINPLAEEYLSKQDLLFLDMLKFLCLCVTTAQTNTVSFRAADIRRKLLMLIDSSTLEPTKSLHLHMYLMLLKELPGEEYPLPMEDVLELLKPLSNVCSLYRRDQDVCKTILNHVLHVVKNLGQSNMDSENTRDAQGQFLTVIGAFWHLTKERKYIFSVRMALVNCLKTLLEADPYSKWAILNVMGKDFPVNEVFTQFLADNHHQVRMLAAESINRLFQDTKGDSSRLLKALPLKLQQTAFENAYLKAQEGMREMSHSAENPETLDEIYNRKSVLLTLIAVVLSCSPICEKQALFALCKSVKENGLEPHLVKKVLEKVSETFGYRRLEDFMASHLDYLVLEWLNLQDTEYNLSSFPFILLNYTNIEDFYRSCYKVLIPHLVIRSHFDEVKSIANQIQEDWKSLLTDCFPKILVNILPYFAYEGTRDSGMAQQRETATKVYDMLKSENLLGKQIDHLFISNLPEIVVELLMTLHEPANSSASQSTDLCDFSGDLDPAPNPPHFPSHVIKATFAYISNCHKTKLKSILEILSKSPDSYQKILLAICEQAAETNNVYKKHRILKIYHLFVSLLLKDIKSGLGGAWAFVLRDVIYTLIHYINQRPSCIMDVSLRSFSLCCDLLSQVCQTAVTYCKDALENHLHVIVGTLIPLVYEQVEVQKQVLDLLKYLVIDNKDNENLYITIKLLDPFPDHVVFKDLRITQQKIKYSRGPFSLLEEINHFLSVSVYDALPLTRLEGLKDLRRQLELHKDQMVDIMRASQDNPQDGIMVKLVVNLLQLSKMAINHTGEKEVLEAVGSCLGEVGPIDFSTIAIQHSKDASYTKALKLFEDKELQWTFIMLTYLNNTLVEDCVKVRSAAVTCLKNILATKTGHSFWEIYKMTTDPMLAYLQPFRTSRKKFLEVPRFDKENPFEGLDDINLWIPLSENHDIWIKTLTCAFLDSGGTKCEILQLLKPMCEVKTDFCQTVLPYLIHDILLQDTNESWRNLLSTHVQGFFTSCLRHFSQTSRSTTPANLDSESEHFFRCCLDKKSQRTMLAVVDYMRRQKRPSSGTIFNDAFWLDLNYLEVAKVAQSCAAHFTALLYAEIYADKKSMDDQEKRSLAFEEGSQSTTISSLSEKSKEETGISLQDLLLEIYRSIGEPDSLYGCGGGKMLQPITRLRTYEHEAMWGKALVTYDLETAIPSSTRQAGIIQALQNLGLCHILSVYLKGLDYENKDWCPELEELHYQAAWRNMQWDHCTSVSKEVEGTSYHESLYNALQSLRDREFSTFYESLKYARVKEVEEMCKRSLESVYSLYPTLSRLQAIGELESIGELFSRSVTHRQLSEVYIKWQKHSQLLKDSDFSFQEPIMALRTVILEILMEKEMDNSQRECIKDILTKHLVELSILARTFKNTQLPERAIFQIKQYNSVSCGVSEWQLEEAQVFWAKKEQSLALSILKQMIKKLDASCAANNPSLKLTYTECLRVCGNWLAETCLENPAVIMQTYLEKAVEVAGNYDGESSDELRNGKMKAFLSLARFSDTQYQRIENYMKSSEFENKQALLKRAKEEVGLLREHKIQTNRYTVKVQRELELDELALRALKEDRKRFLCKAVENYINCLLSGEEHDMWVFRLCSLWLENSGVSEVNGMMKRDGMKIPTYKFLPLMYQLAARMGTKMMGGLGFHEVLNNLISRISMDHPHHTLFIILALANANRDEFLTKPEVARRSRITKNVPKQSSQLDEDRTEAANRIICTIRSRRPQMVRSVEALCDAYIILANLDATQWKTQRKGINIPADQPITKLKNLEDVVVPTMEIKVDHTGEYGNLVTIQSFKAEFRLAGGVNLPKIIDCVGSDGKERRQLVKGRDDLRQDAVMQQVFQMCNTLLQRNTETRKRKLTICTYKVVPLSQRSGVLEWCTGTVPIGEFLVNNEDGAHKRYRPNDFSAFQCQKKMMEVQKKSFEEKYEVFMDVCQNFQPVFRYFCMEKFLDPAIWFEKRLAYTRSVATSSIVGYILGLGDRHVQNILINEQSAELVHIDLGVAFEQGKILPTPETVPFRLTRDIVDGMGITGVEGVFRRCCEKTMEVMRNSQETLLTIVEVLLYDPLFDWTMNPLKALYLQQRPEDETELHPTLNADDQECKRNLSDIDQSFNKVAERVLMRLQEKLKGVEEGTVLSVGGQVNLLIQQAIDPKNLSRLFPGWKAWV
- assayProcedure: ATM in Cell Western Assay (pKAP1 in etoposide-treated MCF-7 cells)
- Type: cell-based
- conditionsUsed: MCF-7 cells, etoposide 100 μM, 1 hr, pKAP1 readout
- Method: Assay of Compounds ATM and DNA-PK Inhibition ATM in Cell Western Assay: Next day, add corresponding concentration of compounds using pin tool (Echo 550), the final top concentration is 1 μM, 3-fold series dilution, total 10 doses. Then add etoposide (Sigma, #E1383) to a final concentration of 100 μM. Incubate at 37° C. for 1 hr. Fix cells by adding 25 μL of fixing solution (8% paraformaldehyde) for 20 minutes at ambient temperature. […]
Where a name gives a salt, the structure may show the parent alone.
quantityName: IC50

[[record]]
compound = "CCc1ncc(S(=O)(=O)Nc2cc(-c3ccc4ncc5c(c4c3)C3(CCC3)C(=O)N5C)cnc2OCCCN(C)C)s1"
systemname = "ATM (Homo sapiens (Human))"
experimentalresult = "1 to 100 nM"

[[record]]
compound = "Cc1ccc(S(=O)(=O)Nc2cc(-c3ccc4ncc5c(c4c3)C3(CCC3)C(=O)N5C)cnc2OCCCN(C)C)cn1 [Example 137, hydrochloride]"
systemname = "ATM (Homo sapiens (Human))"
experimentalresult = "1 to 100 nM"

[[record]]
compound = "CCS(=O)(=O)Nc1cc(-c2ccc3ncc4c(c3c2)C2(CCC2)C(=O)N4C)cnc1N1CC(N(C)C)C1"
systemname = "ATM (Homo sapiens (Human))"
experimentalresult = "1 to 100 nM"

[[record]]
compound = "CN(C)CCCOc1ncc(-c2cc3c4c(cnc3cc2F)N(C)C(=O)C42CC2)cc1NS(=O)(=O)c1ccc(Cl)cc1 [Example 129, hydrochloride]"
systemname = "ATM (Homo sapiens (Human))"
experimentalresult = "1 to 100 nM"

[[record]]
compound = "CN(C)CCCOc1ccc(-c2ccc3ncc4c(c3c2)C2(CC2)C(=O)N4C)cc1NS(=O)(=O)c1cccc(F)c1"
systemname = "ATM (Homo sapiens (Human))"
experimentalresult = "0.5 to 1 nM"


Per the record, CNCCOc1ncc(-c2ccc3ncc4c(c3c2)C2(CCC2)C(=O)N4C)cc1NS(=O)(=O)c1ccccc1 has IC50 of 1 to 100 nM

For reference, reported IC50 for COc1ncc(-c2ccc3ncc4c(c3c2)C2(CC2)C(=O)N4C)cc1CS(=O)(=O)c1ccc(C)nc1 stands at > 100 nM

Recorded IC50 (compound COc1ccc2cc(-c3ccc4ncc5c(c4c3)C3(CC3)C(=O)N5C)ccc2n1 ): > 100 nM

Reported IC50 for COc1ccc(S(=O)(=O)Nc2cc(-c3ccc4ncc5c(c4c3)C3(CC3)C(=O)N5C)cnc2OCCCN(C)C)cc1 was 1 to 100 nM

The compound identified as CN(C)CCCOc1ncc(-c2ccc3ncc4c(c3c2)C2(CCC2)C(=O)N4C)cc1NS(=O)(=O)N1CCC1 registered its IC50 at 1 to 100 nM

Data point: CC(C)Oc1cc(-c2ccc3ncc4c(c3c2)C2(CC2)C(=O)N4C)cnc1OCCCN(C)C ; IC50 = > 100 nM

get_value(item= CN(C)CCCOc1ncc(-c2ccc3ncc4c(c3c2)C2(CC2)C(=O)N4C)cc1NS(=O)(=O)c1ccc(OC(F)(F)F)cc1 , readout=IC50) returns 1 to 100 nM

Per the records, this compound ( COc1cc(-c2ccc3ncc4c(c3c2)C2(CC2)C(=O)N4C)cnc1OCCCN(C)C ) has IC50 equal to 0.5 to 1 nM

For reference, reported IC50 for CC(CCOc1ncc(-c2ccc3ncc4c(c3c2)C2(CCC2)C(=O)N4C)cc1NS(C)(=O)=O)N(C)C (centres unmarked) stands at 1 to 100 nM
